molecular target: UniProt:Q8TD19; experiment: radiometric filter-binding kinase assay, Kinase HotSpot; conditions: compound 0.5 µM; ATP 10 µM
Sequence (Q8TD19 whole entry, looked up): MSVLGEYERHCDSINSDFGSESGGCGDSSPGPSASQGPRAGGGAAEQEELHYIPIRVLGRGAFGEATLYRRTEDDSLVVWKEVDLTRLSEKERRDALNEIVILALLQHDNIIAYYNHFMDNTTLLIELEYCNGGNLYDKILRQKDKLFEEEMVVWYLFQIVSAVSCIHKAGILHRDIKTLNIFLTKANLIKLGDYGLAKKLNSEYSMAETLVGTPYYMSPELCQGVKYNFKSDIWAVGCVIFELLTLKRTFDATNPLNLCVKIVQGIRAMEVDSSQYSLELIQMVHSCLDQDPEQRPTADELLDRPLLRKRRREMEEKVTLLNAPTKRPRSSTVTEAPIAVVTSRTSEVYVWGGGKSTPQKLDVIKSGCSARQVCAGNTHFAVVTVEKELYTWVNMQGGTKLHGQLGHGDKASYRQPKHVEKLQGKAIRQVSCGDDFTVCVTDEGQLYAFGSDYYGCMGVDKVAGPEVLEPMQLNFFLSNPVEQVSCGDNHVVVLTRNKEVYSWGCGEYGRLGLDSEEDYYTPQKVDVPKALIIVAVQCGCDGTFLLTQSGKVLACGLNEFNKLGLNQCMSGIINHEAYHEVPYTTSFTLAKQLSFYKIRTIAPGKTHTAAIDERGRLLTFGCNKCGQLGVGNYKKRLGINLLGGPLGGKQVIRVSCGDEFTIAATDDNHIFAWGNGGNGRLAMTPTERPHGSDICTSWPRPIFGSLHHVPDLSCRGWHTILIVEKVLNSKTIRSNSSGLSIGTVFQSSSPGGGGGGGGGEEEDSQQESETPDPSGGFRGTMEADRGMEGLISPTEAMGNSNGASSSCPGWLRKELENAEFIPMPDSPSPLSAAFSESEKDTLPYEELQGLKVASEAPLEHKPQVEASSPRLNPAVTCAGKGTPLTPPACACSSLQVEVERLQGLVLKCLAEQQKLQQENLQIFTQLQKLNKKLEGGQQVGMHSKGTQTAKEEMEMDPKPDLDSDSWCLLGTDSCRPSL
test-readout: residual activity

>>> value_observed("COc1cc2ncnc(Nc3ccc(OCc4ccccc4)cc3)c2cc1OC")
"104%"
>>> value_observed("Cn1c2ccccc2c2c3c(c4c5ccccc5n(CCC#N)c4c21)CNC3=O")
"96.9%"
>>> value_observed("CN(C)c1ccc(/C=C2\\C(=O)Nc3ccccc32)cc1")
"99.8%"
>>> value_observed("CN(C)CCCn1cc(C2=C(c3c[nH]c4ccccc34)C(=O)NC2=O)c2ccccc21")
"100%"
>>> value_observed("O=C(c1cc2cc(O)ccc2[nH]1)c1cc2cc(O)ccc2[nH]1")
"93.6%"
>>> value_observed("COc1cc2ncnc(Nc3ccc(Oc4ccccc4)cc3)c2cc1OC")
"97.8%"
